Experiment: yeast display, Sf9 membrane polyspecificity reagent, FACS + sequencing; frameworks hold sequencing errors

query.sequence	polyreactivity (PSR sort gate)
QLQLVESGRGLVQAGGSLRLSCAASGSIFYSNAKGWYRQATGKERELVATITWSGGRTYYADSVKGRFTISRDNGKNSVYLQMNRLKPEDTAVDYCAVVDRHQPYGRQLDYWGQGTQVTVSS	low polyreactivity
QVQLVESGGGLVQAGGSLRLSCAASGFTLDPYAMGWYRQAPGKERELVAAIRLSGSSTYYADSVKGRFTISRDNAKNTVYLQMNSLKPEDTAVYYCAADGISHWLYRYDYWGQGTQVTVSS	low polyreactivity
QVQLVESGGGLVQAGGSLRLSCAASGRIIYGYARGWYRQAPGKERELVAAISASGGRTYYADSVKGRFTISRDNAKNTVYLQMNSLKPEDTAVYYCARARFYWLTQWSYDYWGQGTQVTVSS	high polyreactivity
QVQLVESGGGLVQAGGSLRLSCAASGSTFVANVMGWYRQAPGKERELVATINSTSGSTYYADSVKGRFTISRDNAKNTVYLQMNSLKPEDTAVYYCNATHEGFELDYWGQGTQVTVSS	low polyreactivity
QVQLVESGGGLVQAGGSLRLSCAASGRTINRYAMGCYRHAPGKERELVAAINSVGSTYYADSVKGRFTISRDNAKYTVYLQMNSLKPEDTAVFYCNAVQGSRFGYWGEGTQVTVSS	high polyreactivity
QVQLVESGGGLVQAGRSLRLSCAASGRTFYYYAMVWNRQAPGKERELVAAISWRSGSTYYADSVKGRFTISRDNAKNTLYLQMNSLKPEDTAVYYCATSVRFYWFADGYWGQGTQVTVSS	high polyreactivity
QDQLVESGGGLVQAGGSLRLSCAASGRTFAFKSMGWYRQAPGKERELVAAIRWSGGTTYYADSVKGRFTISRDNANNTVYLQMNSLKPEDTAVYYCATGKWVYFRYNYWGLGTQVTVSS	high polyreactivity
QVQLVESGGGLDQAGGSLRLSCAASGSTFKPNVMGWYRQAPGEERELVAAISSRGGRTYYADSVKGRFTISRDNEKNNVYLQMNRLKPEDTAVYYCAALYLATGVDKAFDSWGQGTQVTVSS	high polyreactivity
QVQLVESGGCLVQAGGSLRLSCAASGFIFAYNAMGWYRQAPGKERELVAAISFSGGSTYYADSVKGRFTISRDTANNTVYLQMNSLKPEDTAVYYCAAVRYYWGQGTQVTVSS	high polyreactivity
QVQLVESGGGLVQAGGSLRLSCAASGFTFLYYAMGWYRHAPGKERELVAAITTGSSTNYADSVKGRFTISRDNAKNTVYLQMNSLKPEDTAVYYCAAEYYYRVWYGHYYEYDYWGQGTQVTVSS	high polyreactivity
QVQLVESGGGLVQAGGSLRLSCAASGSTFDGYAMGWYRQAPGKERELVAAISSSGTSTYYADSVKGRFTISRDNAKNTVYLQMNSLKPEDTAVYYCAGKGATQSWAGDYWGQGTQVTVSS	low polyreactivity

* * *

Experiment: yeast display, Sf9 membrane polyspecificity reagent, FACS + sequencing; frameworks hold sequencing errors
measured.endpoint: polyreactivity (PSR sort gate)

query.sequence	result
QVQLVESGGGLVQAGGSLRLSCAASGYTLYLNAMGWYSQAPGKERELVARISGGGSTNYADYVKGRFTMSRDNAKNTVYLQMNSLKPEDTAVYYCAATIFAYGYRSFKLDYWGQGTQVTVSS	low polyreactivity
QVQLVESGGGLVQAGGSLRLSCAASGRTFNVYAMGWYRQAPGKERELVAVITNGGSTNYADSVKGRFTISRDNAKNTVYLQMNSLKPEDTAVYYCAADYYASLTREDRDDYWGQGTQVTVSS	low polyreactivity
QVQLVESGGGLVQAGGSLRLSCAASGSTFQSYTMGWYRQAPGKERELVAGISRSGGSTYYADSVKGRFTISRDNAKNTVYLQMNSLKPEDTAVYYCAAAFYGRWGGFDYWGQGTQVTVSS	high polyreactivity
QVQLVESGGGLVQAGGSRRLSCAASGNIFPQNGMGWYRQAPAKERELVAAITRGGSTYYADSVKGRFTISRDNAKNTVYVQMHSLKPEDTAVYDCAAVRPQYRRRTKANPYNYWGQGTQVTVSS	high polyreactivity
QVQLVESGGGLVHAGGSLSLICAASGITFDVNAMGWYRQAPGKERELVAAITAGGNTYYADSVKGRFTISRDNAKNTVYLQMNSLKPEDTAVYYCAAVSTSLYWAGYDYWGQGTKVTVSS	low polyreactivity

* * *

Experiment: yeast display, Sf9 membrane polyspecificity reagent, FACS + sequencing; frameworks hold sequencing errors

query.sequence	polyreactivity (PSR sort gate)
QVQLVESGGGLVQAGGSLRLSCAASGRTFPFNAMGWYRQAPGKERELVAGISSGGRTNYADSVKGRFTISRDNAKNTVYLQMNSMQPEDTAVYYCAARYQPSRAARWTLDYWGQGTQVTVSS	high polyreactivity
QVQLVDSGGGLVQAGGSLRLSCAASGFIFAPYAMGWYRQAPGKERELVAAISSSGGSTYYADSVKGRFTISRDNAKNTVYLQMNSLKPEDTAVYYCAVDYLTLTYEYYYWGQGTQVTVSS	low polyreactivity
QVQLVDSGGGLVQAGGILRLSCAASGFIFKKNAMGWYRQAHGKEREFVAAITSSGGSTYYADSVKGRFTISRDNAKNTVYLQMNSLKPEDTAVYFCARGTSWWRSRSITFTYDYWGQGTQVTVSS	high polyreactivity
QVQLVESGGGLVQAGSSLRLSCAASGFTFNRYAMGWYRQAPGKERELVAAISWSGGSTYYADSVKGRFTISRDNAKNTVYLQMNSLKPEDTEVYYCSDATAYYRYRGGYDYWGQGTQVTVSS	high polyreactivity
QVQLVESGGGLVQAGGSLRLSCAASGRIFGYNAMGWYRLAPGKERELVAAIRSGGSTNYADSVKGRFTISRDNAKNTVYLQMNSLKPEDTAVYYCAADDRWWYTPRPRYNYWGQGTQVTVSS	high polyreactivity
QVQLVESGGGLVQAGGSLRLSCAASGSTFSVYAMGWYRQAPGKERELVAAITWRGGTTYYADSVKGRFTISRDYAKNTVYLQMNSLKPEDTAVYYCNADWWRTLESDYWGQGTQVTVSS	low polyreactivity
QVQLVESGGGLVQAGGSLRLSCAASGLTFIYNAMGWYRQAPGKERELVAAISGNGGDTYYADSVKGRFTISRDNAKNTVYLQMNSLKPEDTAVYYCAADYAYTPITWDEYWGQGTQVTVSS	low polyreactivity
QVQLVESGGGLVQAGGSLRLSCAASGRTFYGNAMGWYRQAPGKERELVAAITTGGGNTYYADSVKGRFTISRDNAKNTVYLQMNSLKPEDTAVYYCAKCYRAYYWGFNYWGQGTQVTVSS	high polyreactivity
QVQLVESGGGLVQAGGSLRLSCAASGTFSQYAMGWYRQAPGKERELVAAISQGGGSTYYADSVKGRFTISRDNAKNTVYLQMNSLKPEDTAVYYCARSRSYWGIVYGRYDYWGQGTQVTVSS	high polyreactivity
QVQLVESGGGLVQAGGSLRLSCAASGITFQRYVMGWYRQAPGKERELVAAISFSGSSTYYADSVKGRFTISRDNAKNTVYLQMNSLKPEDTAVYYCAADGSVPKYVPYPRYYGYGYWGQGTQVTVSS	high polyreactivity
QVQLVESGGGLVQAGGSLRLSCAASGFTFRLNAMGWYRQAPGPERELVAAITRSGGNTYYADSVKGRFTIPRDNAKNTVYLQMNSLKPEDTAVYYCAARYFYWFRPTEYYYWGQGTQLTVSS	high polyreactivity
QVQLVESGGGLVQAGGSLRLSSAASGSIFGYNAIGWYRQAPGKERELVAAISYSGGRTYYADSVKGRFTISRDNAKNTVYLQMNCLKAEDTAVYYCAKVLQYRTFYTGYDYWGQGTQVTVSS	high polyreactivity
QVQLVESGGGLVQAGGSLRLSCAASGRIFWVNAMGWYRQAPGKEREFVAAISWSGGSTYADSVKGRFTISRDNAKNTVYLQMNSLKPEDTAVYYCAADRYNGRYGYWGQGTQVTVSS	high polyreactivity
QVQLVESGGGLVQAGGSLRLSCAASGSIFEPYVMGWYRQAPGKERELVAAIRQTGGSTYYADSVKGRFTISRDNAKNTVYLQMNSLKPEDTAVYYCNAEQNPSALYDYRGVEGEMGYWGQGTQVTVSS	low polyreactivity
QVQLVESGGGLVQAGGRLRLTCAASASIFYYYTMGWYRQAPGKERELVAAINSIGGRTYYADSVKGRFTISRDNAKNTVYLQMNSLKQEDNAVYYCNAVLDPGDQDDYDYWGQGTQVTLSS	low polyreactivity
QVQLVESGRGLVQAGGSLRLSCASSGSIKQNAMGWNRQAPGKETELVAAIDWDGSSTYYADSVKGRFTISRDNAKNTVYLQMNSLKPEDTAVYYCAKGWYRIKRNDYWGQGTQVTVSS	low polyreactivity
QVQLVESGGGLVQAGGSLRLSCAASGSTFSANAMGWYRQAPGKERELLAAISSGDITYYADSVKGRFTISRDNAKNTVYLQMNSLKPEDTAVYYCAKYTRPTGNVDDGFEYWGQGTQVTVSS	low polyreactivity
QVQLVESGGGLVQAGGSLRLSCAASGSIFSSYAMGWYRQAPGKERELVAAITSGGSTYYADSVKGRFTISRDNAKNTVYLQMNSLKPEDTAVYYCAAYRSYFGYDYWGQGTQVTVSS	low polyreactivity
QVQLVESGGGLVQAGGSLRLSCAASGLIFDYYAMGWYRQAPGKERELVAAISSGGDTTYADSVKGRFTISRDNAKNTVYLQMNSLKPEDTAVYYCAADRWIPVYILGADGYDYWGQGTQVTVSS	low polyreactivity
QVQLVESGGGLVQAGGSLRLSCAASGSTLRSYAMGWYRQAPGKERELVAAIDWDGGRTYYADSVKGRFTISRDNAKNTVYLQMNSLKPEDTAVYYCNTSAGWSNGKDEGDFYSGFDYWGQGTQVTVSS	low polyreactivity
QVQLVESGGGLVQAGGSLRLSCAGSGRIFARNAMGWYRQAPGKARELVAGITWSGSSTYYADSVKGRFTISRDNAKNTVYLQMNRLKPEDTAVYYCAVDYYVGSLRIHHDYWGQGTQVTVSS	low polyreactivity

# credit: the nanobody polyreactivity screen of Harvey et al. (2022)
